System: MS2 coat protein
Test Protocol: apparent KD of MS2 coat protein; designed switch direction (-1 OFF switch, 1 ON switch): 1; higher = weaker reporter binding
Protocol Conditions: Eterna round: R95; input ligand: none
Reported Property: apparent KD of MS2 coat protein (nM)
Give just the numeric value; nM need not be written.

Consider the reported apparent KD of MS2 coat protein for these sequences:
1. GAAGGAUGAGCGUAGGAUAUAGGAGGAGUGACAUGAGGAUCACCCAUGUGGUAUGAGGGAGGAUUCUAGAAGGACGCGGUAGAAG [JR_SS2_Sub065] (puzzle: Same State 2) = 161
2. CGUCCGGCCUGUGCUGGCCGGUGGCUUGUACAUGAGGAUCACCCAUGUUCUUGUGCUGGCUUUUUGCUCGUCGUGUG [salish99_mir208a_r3_023] (puzzle: Sensor for hsa-mir-208a) = 37.9
3. AGUCCAGCCUGAGCUGGACAAAAGCAUGUACAUGAGGAUCACCCAUGUUCAUGUACAAGCUUUUUGCUCGUCUUAUG [salish99_208a_r3_051] (puzzle: Sensor for hsa-mir-208a) = 634
4. UAAACUUCUUUUAGUGUAAUGCAUGUGAUACAUGAGGAUCACCCAUGUUUUGGUUCGUUUUAUUUUGUUCGUCUUAA [JR_SHM208A_Sub078] (puzzle: Sensor for hsa-mir-208a) = 81.8

IN: I would be grateful if you could share the reported apparent KD of MS2 coat protein for UUCUCUUUUUAGAGACAAGCUUUUUGAUCACAUGAGGAUCACCCAUGUCUCGUCUUAUGAUUUACUUCGUUAUUUCU [BA Sensor hsa-mir-208a - 2 - 6] (puzzle: Sensor for hsa-mir-208a) .
OUT: 125

###

Test system: MS2 coat protein
Test Protocol: apparent KD of MS2 coat protein; designed switch direction (-1 OFF switch, 1 ON switch): -1; higher = weaker reporter binding
Protocol Conditions: input ligand: none
Criterion: apparent KD of MS2 coat protein meeting or surpassing 40 nM. Met: label 1. Not met: label 0.

Answered cases to consult:
1) AGCUGUGGCCGAGGAUAUCCACAUGAGGAUCACCCAUGUGAAUAGGGAAUUAACCCAUAACCGUGGGAGAAGGCGGUCUCAGCA [Eli eng2 - 049] (Eterna round: R96, puzzle: Exclusion NG 2) = label 1
2) UACAAGCUUUAAAGAUCCUACAUGAGGAUCACCCAUGUGCUCGUCUUAUAACGUACUGUGACGAAAGUCACGGUACG [JL TOV1 3.20] (Eterna round: R97, puzzle: Sensor, turn-off variant 1) = label 1
3) GGAGAGGCAGGAUAUACAUGAGGAUCACCCAUGUGAGCGAGGAGAACGAGCAAGAGAGGUAGAAGGGCCGGGAG [AK-MS2ROC-r4-exclusion3-27] (Eterna round: R97, puzzle: Exclusion 3) = label 1

IN: Reported apparent KD of MS2 coat protein at or above 40 nM? CGUCAGUGAGGAUAUGGUAACGUUUACAUGAGGAUCACCCAUGUUUCAUGGGACUAGAGACUAGAAGGUACUGACG [EX5 #42] (Eterna round: R97, puzzle: Exclusion 5)
OUT: label 1

IN: Now give it for CAAAACACUGGAGGAUAUUGGAAAGGAAGUGUACAAGAAGGCCAGCUCUAACAUGAGGAUCACCCAUGUCCAGGGCAUGGGCAA [PowerStrip EXNG 1.12] (Eterna round: R96, puzzle: Exclusion NG 1) too.
OUT: label 0

IN: Now give it for GGAAUGUAAGGAUAUGCGAAAAGAAGCCGAAGGGAGUCGAAGCAGAAGGUACAUGAGGAUCACCCAUGUAAGGG [AK-MS2ROC-r4-exclusion4-12.1] (Eterna round: R97, puzzle: Exclusion 4) too.
OUT: label 1

IN: Now give it for GCUAGCCAUGUCAGGAUAUGCUGUACCUUGGUACAGCAGAAGGGACAUGAGGAUCACCCAUGUGCCUAGCUAGC [JL-BMX4-4.03] (Eterna round: R97, puzzle: Brourd's mod of Exclusion 4) too.
OUT: label 0

IN: Now give it for CGGCUACGAUGAGGAUAUACGCACAUGAGGAUCACCCAUGUAAAUCACGGGUAAAGAUCGCCAUCGUAGAAGGCAUAAGGGCCC [Orsole] (Eterna round: R96, puzzle: Exclusion NG 2) too.
OUT: label 1
